target.desc: T1, recombinant cynomolgus monkey (Macaca fascicularis) TfR1 (cynomolgus monkey (Macaca fascicularis), UniProt Q5RDH6 87-760 (Pongo abelii entry), limits assumed)
T1 construct: Recombinant protein; also called cTfR1; cyTfR1
T1 chain: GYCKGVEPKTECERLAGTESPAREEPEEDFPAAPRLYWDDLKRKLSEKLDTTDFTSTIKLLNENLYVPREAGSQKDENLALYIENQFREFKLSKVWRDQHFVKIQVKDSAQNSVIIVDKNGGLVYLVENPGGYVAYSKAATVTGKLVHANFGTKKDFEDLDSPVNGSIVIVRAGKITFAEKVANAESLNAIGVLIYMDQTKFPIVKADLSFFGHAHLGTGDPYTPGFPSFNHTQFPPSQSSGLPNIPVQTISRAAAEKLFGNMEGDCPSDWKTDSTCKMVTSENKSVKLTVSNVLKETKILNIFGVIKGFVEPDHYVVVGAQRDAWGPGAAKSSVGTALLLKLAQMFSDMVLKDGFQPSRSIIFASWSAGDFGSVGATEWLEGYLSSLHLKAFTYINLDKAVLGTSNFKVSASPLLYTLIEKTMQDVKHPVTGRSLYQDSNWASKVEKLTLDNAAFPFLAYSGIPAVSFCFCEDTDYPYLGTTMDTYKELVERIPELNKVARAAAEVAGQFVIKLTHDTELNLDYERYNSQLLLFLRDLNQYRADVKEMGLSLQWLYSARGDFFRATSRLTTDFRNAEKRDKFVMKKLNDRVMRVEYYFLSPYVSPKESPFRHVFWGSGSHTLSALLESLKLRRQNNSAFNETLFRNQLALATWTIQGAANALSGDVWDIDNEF
assay.info: Table 14, unconjugated Fab, d9 (after 9 days at 40 C); method not named
# maps each entry to its Binding affinity
The response must be a number in nM with no trailing unit.

* humanized anti-TfR Fab 3A4 VH3 (N54T)/Vκ4 (Fab, V domains shown, also called 3A4 (VH3-N54T/Vk4)) VH: EVQLVQSGSELKKPGASVKVSCTASGFNIKDDYMYWVRQPPGKGLEWIGWIDPETGDTEYASKFQDRVTVTADTSTNTAYMELSSLRSEDTAVYYCTLWLRRGLDYWGQGTLVTVSS VL: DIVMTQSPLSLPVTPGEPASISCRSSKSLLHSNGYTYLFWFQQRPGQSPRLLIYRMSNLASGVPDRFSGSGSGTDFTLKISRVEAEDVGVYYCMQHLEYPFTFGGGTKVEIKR | 128

# input So what does the record say about Binding affinity for humanized anti-TfR Fab 5H12 VH5 (C33Y)/Vκ3 (Fab, V domains shown, also called 5H12 (VH5-C33Y/Vk3)) VH: QVQLVQSGAEVKKPGASVKVSCKASGYSFTDYYINWVRQAPGQGLEWMGWIYPGSGNTRYSERFKGRVTITRDTSASTAYMELSSLRSEDTAVYYCAREDYYPYHGMDYWGQGTLVTVSS VL: DIVLTQSPDSLAVSLGERATINCRASESVDGYDNSFMHWYQQKPGQPPKLLIFRASNLESGVPDRFSGSGSRTDFTLTISSLQAEDVAVYYCQQSSEDPWTFGQGTKLEIKR ?
# output 0.69
